B1: TPR 5TU (parent)
chain: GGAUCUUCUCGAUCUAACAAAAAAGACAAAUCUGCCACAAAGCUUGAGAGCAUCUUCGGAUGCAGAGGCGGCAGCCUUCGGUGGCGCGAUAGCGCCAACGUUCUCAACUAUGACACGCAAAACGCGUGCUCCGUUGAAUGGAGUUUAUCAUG

Variants of: B1
assay notes: polymerase ribozyme fitness, log enrichment relative to wild type (log ratio); higher = more active; in vitro selection for triplet polymerase activity
This sample holds only a part of the variants without activity.
endpoint: polymerase ribozyme fitness (log ratio)
API note: the answer field is a bare number with no unit suffix.

Before answering, review these 8 worked examples.
- A17G G46A C69A A121G: -3.45
- C54A U102A: -2.71
- C38G C95A A150U: -0.802
- A12G U56G C96U A120U: -0.669
- A91G A142C: -3.5
- A49C U146A: -3.98
- C76U A121U: 0.67
- A49G C85U G117U U135C G143C: -4.06

Item: G133U U135A U139G U144G A150U | polymerase ribozyme fitness (log ratio): -4.1

According to the records, this variant A21U A26C C69A G84U displays polymerase ribozyme fitness (log ratio) of -3.67

The reported polymerase ribozyme fitness (log ratio) of the variant A98G A107U was -3.24

The value of polymerase ribozyme fitness (log ratio) measured for the variant C36U C93A G117U turned out to be -3.25

Form field polymerase ribozyme fitness (log ratio), entry C57U C118G U145C : -0.881

Recorded result, C14A G94A , polymerase ribozyme fitness (log ratio): -1.67

In plain terms, A49G U53A G59A A142U has a documented polymerase ribozyme fitness (log ratio) of -2.64
